System: HS 578T
Protocol: NCI one-dose SRB anti-proliferative screen
Assay type: cell-based
Condition: Homo sapiens; HS 578T, Breast cancer; NCI one dose; read-out: Cell growth inhibition %
Parameter: inhibition at 10 µM
Give your result as the value with the unit written after it.

>>> value_reported("COc1ccc(-c2nc3cc(-c4nnc(SCC(=O)Nc5ccc(C(=O)/C=C/c6ccccc6)cc5)o4)ccc3[nH]2)cc1")
"7.69%"
>>> value_reported("COc1ccc(/C=C/C(=O)c2ccc(NC(=O)CSc3nnc(-c4ccc5[nH]c(-c6ccc(OC)cc6)nc5c4)o3)cc2)cc1")
"21.1%"
>>> value_reported("COc1ccc(-c2nc3cc(-c4nnc(SCC(=O)Nc5ccc(C(=O)/C=C/c6ccc(Cl)cc6)cc5)o4)ccc3[nH]2)cc1")
"9.4%"
>>> value_reported("COc1ccc(-c2nc3cc(-c4nnc(SCC(=O)Nc5ccc(C(=O)/C=C/c6cc(OC)c(OC)c(OC)c6)cc5)o4)ccc3[nH]2)cc1")
"0%"
>>> value_reported("O=C(CSc1nnc(-c2ccc3[nH]c(-c4ccccc4)nc3c2)o1)Nc1ccc(C(=O)/C=C/c2ccccc2)cc1")
"0%"
>>> value_reported("O=C(CSc1nnc(-c2ccc3[nH]c(-c4ccccc4)nc3c2)o1)Nc1ccc(C(=O)/C=C/c2ccc(Cl)cc2)cc1")
"0%"
>>> value_reported("COc1ccc(/C=C/C(=O)c2ccc(NC(=O)CSc3nnc(-c4ccc5[nH]c(-c6ccccc6)nc5c4)o3)cc2)cc1")
"0%"
>>> value_reported("COc1ccc(/C=C/C(=O)c2ccc(NC(=O)CSc3nnc(-c4ccc5[nH]c(-c6ccccc6)nc5c4)o3)cc2)cc1OC")
"0%"

Requested read-out inhibition at 10 µM, target or system HS 578T, entry COc1cc(/C=C/C(=O)c2ccc(NC(=O)CSc3nnc(-c4ccc5[nH]c(-c6ccccc6)nc5c4)o3)cc2)cc(OC)c1OC
14.5%

Requested read-out inhibition at 10 µM, target or system HS 578T, entry COc1ccc(-c2nc3cc(-c4nnc(SCC(=O)Nc5ccc(C(=O)/C=C/c6ccc(OC)c(OC)c6)cc5)o4)ccc3[nH]2)cc1
7.35%

---

Entries and their Cytochrome C Conc values follow.
System: Cytochrome C in MCF-7 human breast cancer cell line
Protocol: Cytochrome C assay
Type: cell-based
Condition: MCF-7 breast cancer cells
Just the number please, in ng/mL, no unit attached.

As a guide, the following entries are already answered.
>>> value_reported("COc1ccc(/C=C/C(=O)c2ccc(NC(=O)CSc3nnc(-c4ccc5[nH]c(-c6ccc(OC)cc6)nc5c4)o3)cc2)cc1 [Compound 7m]")
0.515
>>> value_reported("COc1ccc(-c2nc3cc(-c4nnc(SCC(=O)Nc5ccc(C(=O)/C=C/c6ccccc6)cc5)o4)ccc3[nH]2)cc1 [Compound 7k]")
0.660
>>> value_reported("COc1ccc(-c2nc3cc(-c4nnc(SCC(=O)Nc5ccc(C(=O)/C=C/c6ccc(Cl)cc6)cc5)o4)ccc3[nH]2)cc1 [Compound 7l]")
0.595

Kindly review the next compound as well.
Fill blank: measured Cytochrome C Conc of the compound COc1cccc2c1C(=O)c1c(O)c3c(c(O)c1C2=O)C[C@@](O)(C(=O)CO)C[C@@H]3O[C@H]1C[C@H](N)[C@H](O)[C@H](C)O1 [Doxorubicin, reference compound] is ____.
0.604
